# reported IC50 (Hum-ZAP secondary immunotoxin killing of IGROV-1 cells); entries follow
Molecular target: Human FRA on IGROV-1 human ovarian adenocarcinoma cells (human, UniProt P15328 25-234)
Sequence (P15328 25-234 limits assumed): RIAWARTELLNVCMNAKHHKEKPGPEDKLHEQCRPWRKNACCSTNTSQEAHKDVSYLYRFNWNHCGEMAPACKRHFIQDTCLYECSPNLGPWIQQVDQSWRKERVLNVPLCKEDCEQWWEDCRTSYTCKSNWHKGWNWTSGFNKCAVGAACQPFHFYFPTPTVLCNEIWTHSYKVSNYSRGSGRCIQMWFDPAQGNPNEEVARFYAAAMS
Assay: cell-based or functional assay
# output: bare number, implied unit ng·mL

| binder | unit label | reported value |
| --- | --- | --- |
| MORAb-003 anti-FRA antibody, lot NB810-12 (low temperature; harvested 14 days after initiation of culture) (antibody, human IgG1, kappa, V domains shown, N-linked neutral glycans at Asn299 in SEQ ID NO: 5) VH: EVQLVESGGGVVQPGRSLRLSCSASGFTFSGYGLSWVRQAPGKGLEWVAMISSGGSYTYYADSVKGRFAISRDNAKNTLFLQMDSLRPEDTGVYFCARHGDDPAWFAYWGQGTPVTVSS VL: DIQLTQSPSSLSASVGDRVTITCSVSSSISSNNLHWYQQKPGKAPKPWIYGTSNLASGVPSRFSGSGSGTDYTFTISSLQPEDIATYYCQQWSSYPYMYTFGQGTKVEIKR | ng·mL | 25 |
| MORAb-003 anti-FRA antibody, lot NB809-67 (low DO; harvested 13 days after initiation of culture) (antibody, human IgG1, kappa, V domains shown, N-linked neutral glycans at Asn299 in SEQ ID NO: 5) VH: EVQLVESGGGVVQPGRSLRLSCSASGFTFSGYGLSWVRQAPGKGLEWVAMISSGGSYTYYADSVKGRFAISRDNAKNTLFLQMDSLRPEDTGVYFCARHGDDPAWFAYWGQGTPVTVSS VL: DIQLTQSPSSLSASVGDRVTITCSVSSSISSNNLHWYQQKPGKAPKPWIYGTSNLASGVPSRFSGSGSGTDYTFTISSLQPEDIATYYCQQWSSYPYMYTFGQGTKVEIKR | ng·mL | 29 |
| MORAb-003 anti-FRA antibody, lot NB809-65 (positive control; harvested 13 days after initiation of culture) (antibody, human IgG1, kappa, V domains shown, N-linked neutral glycans at Asn299 in SEQ ID NO: 5, also called Pos. ctl; positive control (round 2)) VH: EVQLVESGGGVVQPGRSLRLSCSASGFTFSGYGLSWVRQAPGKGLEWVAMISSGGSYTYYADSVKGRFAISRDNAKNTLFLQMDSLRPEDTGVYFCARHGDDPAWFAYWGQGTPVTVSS VL: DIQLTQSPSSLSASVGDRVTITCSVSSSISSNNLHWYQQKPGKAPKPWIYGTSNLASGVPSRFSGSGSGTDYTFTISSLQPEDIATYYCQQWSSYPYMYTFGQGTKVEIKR | ng·mL | 14 |
| MORAb-003 anti-FRA antibody, lot NB809-69 (10 mM Na butyrate; harvested 13 days after initiation of culture) (antibody, human IgG1, kappa, V domains shown, N-linked neutral glycans at Asn299 in SEQ ID NO: 5) VH: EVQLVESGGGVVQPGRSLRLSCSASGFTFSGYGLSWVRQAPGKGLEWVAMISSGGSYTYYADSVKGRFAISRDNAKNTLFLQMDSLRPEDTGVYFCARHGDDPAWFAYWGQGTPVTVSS VL: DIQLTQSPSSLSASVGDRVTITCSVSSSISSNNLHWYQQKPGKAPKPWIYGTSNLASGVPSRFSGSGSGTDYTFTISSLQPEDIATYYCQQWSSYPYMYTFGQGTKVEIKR | ng·mL | 24 |

Give the measured IC50 (Hum-ZAP secondary immunotoxin killing of IGROV-1 cells) of MORAb-003 anti-FRA antibody, lot NB810-13 (high osmolarity; harvested 14 days after initiation of culture) (antibody, human IgG1, kappa, V domains shown, N-linked neutral glycans at Asn299 in SEQ ID NO: 5) VH: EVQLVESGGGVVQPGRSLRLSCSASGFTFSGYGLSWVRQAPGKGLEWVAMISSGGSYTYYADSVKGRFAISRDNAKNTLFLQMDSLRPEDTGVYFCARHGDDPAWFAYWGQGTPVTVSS VL: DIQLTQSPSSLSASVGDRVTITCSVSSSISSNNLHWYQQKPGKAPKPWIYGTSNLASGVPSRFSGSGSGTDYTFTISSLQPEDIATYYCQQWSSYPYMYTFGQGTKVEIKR .
990
